Target: T1, nebulette SH3 domain (residues 955-1014) (human (by the printed UniProt entry …, UniProt O76041 955-1014))
T1 sequence (looked up): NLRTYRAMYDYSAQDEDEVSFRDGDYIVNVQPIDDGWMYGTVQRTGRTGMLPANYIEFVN
Assay: ITC
pKd: −log10 of the molar value.

{"binder": "PPPTLPKPKLPKH [synthetic 13-mer XIRP2 peptide PPPTLPKPKLPKH]", "pKd": 4.89}
